Would you kindly list PBM binding z-score for each of these sequences?
system: PPARg:RXRa 270nM:90nM, anti-RXR (NR concentration 270 nM, RXRa partner concentration 90 nM); experiment: PBM binding z-score (relative to random genomic background probes); higher = stronger binding; sequences stand for … in GC…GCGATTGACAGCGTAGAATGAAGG

Reported PBM binding z-score ( `CGAAATAGGTCATTGACAGGACAGTGAATAGTAA` ) = 6.73

Given item `TGTCAAAGTTCAAAGGTAGCGTAAGTATCCACAC` , the value recorded as its PBM binding z-score is 7.45

The sequence listed as `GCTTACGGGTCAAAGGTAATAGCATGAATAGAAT` shows PBM binding z-score equal to 8.1

Input `TTACCAAGGTGAGTTGAGGTCGTTGATCCAACTC` . Output PBM binding z-score: 0.682

Kindly note the recorded PBM binding z-score for `CCTAGAAGGCCAGGGTCACTCAAGCATTTCGCTT` , which is 1.35

The recorded PBM binding z-score for entry `CCGAGTAGGTTATGAGGCATTCAGGCAACGGTGA` equals 2.22

Item: `GCTATTACTTGAAAGGGCAACCGAATGATTCTCG` | PBM binding z-score: 0.184

Lookup result for `GCGACGGGGGCAAAGCAGGTTACCATAAGGTTGG` ; measured PBM binding z-score: 3.58

For record `TCATATAGGTAAATGATAGGTGAAAGTCCGATCT` the listed PBM binding z-score is 2.71

Query `TCTTGTAGATCAACAGCAGGTTAAGAAAGATCGA` yields PBM binding z-score of 1.17

Reported PBM binding z-score for `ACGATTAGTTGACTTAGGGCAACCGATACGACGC` was -0.28

Looking up `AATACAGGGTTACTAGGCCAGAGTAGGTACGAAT` , I see its PBM binding z-score listed as 4.22

====

test system: RARb:RXRa (NR concentration 270 nM, RXRa partner concentration 90 nM); test: PBM binding z-score (relative to random genomic background probes); higher = stronger binding; sequences stand for … in GC…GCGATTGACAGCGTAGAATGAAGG
Would you mind telling me the reported PBM binding z-score of each entry?
Note: the reply should be a number with no unit written.

Sample `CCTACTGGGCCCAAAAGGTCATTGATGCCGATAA` ; PBM binding z-score observed: 3.93

Entry under test: `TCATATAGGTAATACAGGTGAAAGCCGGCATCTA` . Its PBM binding z-score was 0.757

Entry `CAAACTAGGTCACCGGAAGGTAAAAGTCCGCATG` ; PBM binding z-score = 4.32

Entry `TGAATGAGGTTATAAGATCAGGGACCGTTGCAAA` — recorded PBM binding z-score = 1.33

Entry `CCGACTGGGGCAGAAAGGTTAACATACCATCCGG` , PBM binding z-score reported as 1.98

// recorded PBM binding z-score for `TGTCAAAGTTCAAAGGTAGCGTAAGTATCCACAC` : 5.09

The value of PBM binding z-score measured for the sequence `GGAACGAGGGCAAGTTGATAGCGGAGTTTGATGG` turned out to be 2.53

So for `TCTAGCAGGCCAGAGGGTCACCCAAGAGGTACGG` , the logged PBM binding z-score turned out to be 2.43

The recorded PBM binding z-score for entry `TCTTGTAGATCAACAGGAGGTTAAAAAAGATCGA` equals 0.47

Looking up `GCTAGTTGGTCAGTAAAAGGACACACACCGGTCG` , I see its PBM binding z-score listed as 1.61

Item: `CCTCGGAGGACAACAGGAGGTCAGAACTGCCAGA` | PBM binding z-score: 2.68

Briefly, PBM binding z-score measured for `TCTAGTTGGTCACGCAGGTCACACACGACGGGTA` : 3.05

====

system: RXRa homodimer (NR concentration 180 nM); assay: PBM binding z-score (relative to random genomic background probes); higher = stronger binding; sequences stand for … in GC…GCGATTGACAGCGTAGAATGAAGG
Please note: class 1 applies when PBM binding z-score is 2 or greater, and class 0 applies otherwise.

Please indicate if the recorded PBM binding z-score for `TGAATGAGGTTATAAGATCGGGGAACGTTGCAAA` meets or exceeds 2.
class 0

Check the entry `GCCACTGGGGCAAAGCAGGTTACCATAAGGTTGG` : does PBM binding z-score equal or exceed 2?
class 0

Decide: is the reported value of PBM binding z-score for `TCTAGCAGGCCAGAGGTTCACTCAAGAGGTACGG` equal to or greater than 2?
class 0

Given the entry `CCTGCTAGGTCAATGGTCGGCTAAAGCAGCTCGC` , answer whether its PBM binding z-score meets or surpasses 2.
class 0

For this sequence, is measured PBM binding z-score 2 or higher? `TAGCCTAGGTCATGCGGGCAAGTATAGTGTCGGC`
class 1

Could you verify whether the entry `ATCCCAAGGTGATCGTGAGGTCGTTGATACTAAC` shows PBM binding z-score of no less than 2?
class 0

In plain terms: is recorded PBM binding z-score at least 2 for `CGAACTAGGTCATAGACAGGACAGTGAATAGTAA` ?
class 1

Quick check, PBM binding z-score >= 2? `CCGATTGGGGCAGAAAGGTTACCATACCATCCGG`
class 0

Given the entry `GTTTGTAGATCAAGGTTAAGAAAGACTAAGCTAA` , answer whether its PBM binding z-score meets or surpasses 2.
class 0

hey, is PBM binding z-score for this one >= 2? `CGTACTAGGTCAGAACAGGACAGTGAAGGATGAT`
class 0

In plain terms: is recorded PBM binding z-score at least 2 for `AAAACGAGGGCACGCTGAGTTGATAGCAGAGTAG` ?
class 0

Evaluate `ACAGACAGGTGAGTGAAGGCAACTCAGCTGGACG` : PBM binding z-score at minimum 2?
class 0

Determine whether this sequence has PBM binding z-score no lower than 2: `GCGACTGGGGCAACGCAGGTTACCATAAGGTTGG`
class 0

In plain terms: is recorded PBM binding z-score at least 2 for `CAAACTAGGTCAAGAGGCCAAAGTCCGCTTCCCG` ?
class 1

Could you please find out whether `AATACAGGGTCACTAGGACAGAGTAGGTACGAAT` has PBM binding z-score that meets 2 or exceeds it?
class 1

// inclusive: PBM binding z-score at least 2? input: `GATACAGGGTCAAGGCCCGAGTACGCGTATTGAT`
class 1

For this sequence, is measured PBM binding z-score 2 or higher? `CGTCAAAGTTCAACTAAGGTAGCGTAAAGCACGC`
class 1

For this sequence, is measured PBM binding z-score 2 or higher? `ACTATTAGTTGACTTAGTGCAACCGATACGACGC`
class 0

Textbook exercise: given the entry `CCTTACGGGTCACGAGGTTATACCACGACGAGCG` , state whether its PBM binding z-score is greater than or equal to 2.
class 1

In plain terms: is recorded PBM binding z-score at least 2 for `CCTACTGGGCCATCAGGCCATTGATATCAACGTT` ?
class 0

For this sequence, is measured PBM binding z-score 2 or higher? `CGTCCAAGGTCAATGCTAGGTCAGTGAAAGCATT`
class 1

Quick check: does `CCTCGGAGGACAACAGGTGGTCAGAGCTGCCAGA` have PBM binding z-score greater than or equal to 2?
class 0

Given the entry `CAAACTAGGTCAAAGGTCAAAGGCGAGCCAACCA` , answer whether its PBM binding z-score meets or surpasses 2.
class 1

// inclusive: PBM binding z-score at least 2? input: `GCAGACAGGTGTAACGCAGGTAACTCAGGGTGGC`
class 0

Assess whether reported PBM binding z-score for `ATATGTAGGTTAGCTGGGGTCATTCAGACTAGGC` sits at 2 or higher.
class 1

Is PBM binding z-score at least 2? Consider `TCAAATAGGTAAAAGGTGAAAGTCGGTGTGGTAA`
class 1

Kindly determine if PBM binding z-score recorded for `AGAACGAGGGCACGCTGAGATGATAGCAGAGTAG` is above or exactly 2.
class 0

Test whether the sequence `TCCTGTAGATCAACAGGAGGTTAAGAAAGATCGA` records PBM binding z-score of 2 or higher.
class 0

Given the entry `ATCGAAAGGTCCAGGTGAGTATAGAGAAAGGGAA` , answer whether its PBM binding z-score meets or surpasses 2.
class 0

Confirm if PBM binding z-score reported for the sequence `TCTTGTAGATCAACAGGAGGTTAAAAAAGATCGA` is 2 or above.
class 0

Does the reported PBM binding z-score for `CCGAGTAGGTTATGGGGCATTAAGGCAACGGTGA` fall at or above the 2 mark?
class 0

In plain terms: is recorded PBM binding z-score at least 2 for `GCTACTGGGGCAAAGCAGGTTACCATAAGGTTGG` ?
class 0

Say whether `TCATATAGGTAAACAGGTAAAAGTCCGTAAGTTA` shows PBM binding z-score of 2 or more.
class 0

Given the entry `ACTACCAGGCCAAGTTTGGGTCACTCAAACAAAG` , answer whether its PBM binding z-score meets or surpasses 2.
class 0

Does PBM binding z-score meet or surpass 2 for `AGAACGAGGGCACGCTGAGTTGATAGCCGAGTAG` ?
class 0

Threshold query (PBM binding z-score >= 2) on `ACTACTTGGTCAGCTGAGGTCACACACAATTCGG`
class 1

Check if PBM binding z-score >= 2 (inclusive). Item: `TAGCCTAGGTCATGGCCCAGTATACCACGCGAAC`
class 1

Does PBM binding z-score meet or surpass 2 for `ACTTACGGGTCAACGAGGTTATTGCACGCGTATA` ?
class 1

Answer whether PBM binding z-score of `ACCATTAGTTGAGACGAGGGCAACCGATAGGTTG` is greater than or equal to 2.
class 0

PBM binding z-score >= 2 for `AATACAGGGTCATCATAGGCCAGAGTACGCACAG` ?
class 1

Kindly determine if PBM binding z-score recorded for `CGTCTAAGGTCAATGCTAGGTCAGTGAAAGCATT` is above or exactly 2.
class 1

Identify whether the reported PBM binding z-score of the following sequence is 2 or greater: `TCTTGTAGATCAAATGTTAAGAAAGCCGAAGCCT`
class 0

Reported PBM binding z-score reaches at least 2 for `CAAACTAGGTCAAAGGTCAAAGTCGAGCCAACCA` ?
class 1

Item `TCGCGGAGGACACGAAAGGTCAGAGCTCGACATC` with PBM binding z-score of 2 or above?
class 1

Would you say `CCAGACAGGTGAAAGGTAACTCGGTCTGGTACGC` shows PBM binding z-score at minimum 2?
class 1

Item `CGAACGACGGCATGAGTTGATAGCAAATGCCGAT` with PBM binding z-score of 2 or above?
class 0

Is PBM binding z-score at least 2? Consider `CCTCGGAGGACAACAGGAGGTGAGAGCTGCCAGA`
class 0

I'd appreciate it if you could say whether `AGCCAAAGTTCACTAGGTAACGTAAGATTCAGCT` has PBM binding z-score at least equal to 2.
class 1

Check this sequence for PBM binding z-score at or above 2: `ATCTCTAGGGAAGACTCAGTTCAGTGAAGAACGC`
class 0

State whether the measured PBM binding z-score reaches 2, counting equality as reaching it, for `GCGACTGGGGCAATGCAGGTTACCATAAGGTTGG`
class 0

Check this sequence for PBM binding z-score at or above 2: `ATACCAAAGTGATCGTGAGGTCGTTGATACTAAC`
class 0
